Every entry's value here was drawn from PubChem BioAssay AID2060337.

tested on: 832693-133-R-J1-PDC multi-cell spheroids, viability; test: Anticancer human tumor 832693-133-R-J1-PDC patient-derived head and neck squamous carcinoma cell line growth inhibition [IpAb]; settings: curve of first compound; second compound 0.1 µM;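 also: spheroids exposed to the drugs for one week before the viability readout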
pIC50: −log10 of the molar value.
The entries below come with measured pIC50 values attached.
OUTCOME_MEASURE: pIC50

>>> experimental_value("COc1c(OCCCN2CCOCC2)ccc2c3n(c(=NC(=O)c4cnc(N)nc4)nc12)CCN3 + CCN1CCN(Cc2ccc(Nc3ncc(F)c(-c4cc(F)c5nc(C)n(C(C)C)c5c4)n3)nc2)CC1")
8.15
>>> experimental_value("COc1c(OCCCN2CCOCC2)ccc2c3n(c(=NC(=O)c4cnc(N)nc4)nc12)CCN3 + CC(C)NCC(C(=O)N1CCN(c2ncnc3c2C(C)CC3O)CC1)c1ccc(Cl)cc1")
7.81
>>> experimental_value("Cn1nccc1Nc1nccc(-c2ccn(C(CO)c3ccc(Cl)c(F)c3)c(=O)c2)n1 (stereo not given) + CCN1CCN(Cc2ccc(Nc3ncc(F)c(-c4cc(F)c5nc(C)n(C(C)C)c5c4)n3)nc2)CC1")
6.35
>>> experimental_value("CC1(C)CCC(CN2CCN(c3ccc(C(=O)NS(=O)(=O)c4ccc(NCC5CCOCC5)c([N+](=O)[O-])c4)c(Oc4cnc5[nH]ccc5c4)c3)CC2)=C(c2ccc(Cl)cc2)C1 + CCN1CCN(Cc2ccc(Nc3ncc(F)c(-c4cc(F)c5nc(C)n(C(C)C)c5c4)n3)nc2)CC1")
5.38
>>> experimental_value("CCCS(=O)(=O)Nc1ccc(F)c(C(=O)c2c[nH]c3ncc(-c4ccc(Cl)cc4)cc23)c1F + CCN1CCN(Cc2ccc(Nc3ncc(F)c(-c4cc(F)c5nc(C)n(C(C)C)c5c4)n3)nc2)CC1")
5.91
>>> experimental_value("CC(C)(C)c1cnc(CSc2cnc(NC(=O)C3CCNCC3)s2)o1 + CC(C)NCC(C(=O)N1CCN(c2ncnc3c2C(C)CC3O)CC1)c1ccc(Cl)cc1")
6.66
>>> experimental_value("Cn1nccc1Nc1nccc(-c2ccn(C(CO)c3ccc(Cl)c(F)c3)c(=O)c2)n1 (stereo not given) + CC(C)NCC(C(=O)N1CCN(c2ncnc3c2C(C)CC3O)CC1)c1ccc(Cl)cc1")
6.42
